system: HLA-B*15:17
assay-notes: IEDB peptide-MHC binding, purified MHC/competitive/fluorescence; filed as Kd, often an IC50 or EC50 that approximates it; bounds were set here for any values at or beyond the usual limits of such assays
assay-conditions: source organism: Shigella dysenteriae Sd197
experimental-readout: Kd

INSERT INTO results (sequence_text, system, experimental_readout, recorded_value) VALUES
  ('IEDDEIIWV', 'HLA-B*15:17', 'Kd', '≥ 20 µM');

* * *

system: HLA-A*02:01
assay-notes: IEDB peptide-MHC binding, purified MHC/competitive/fluorescence; filed as Kd, often an IC50 or EC50 that approximates it; bounds were set here for any values at or beyond the usual limits of such assays
assay-conditions: source organism: Salmonella enterica subsp. enterica serovar Typhi
pKd: −log10 of the molar value.
experimental-readout: pKd

INSERT INTO assay_data (sequence_text, qualifier_operator, recorded_value) VALUES
  ('ITDWLNFTL', '=', 8.66),
  ('FVVDTTPPL', '=', 9.70),
  ('HVTQHWPQL', '≤', 4.70);
